I'd be grateful if you could share measured IC50 for these entries.
- Target entity: WDR5 (Homo sapiens (Human))
- Experiment notes: FP based competitive binding assay to WDR5
- Test context: 4 nM WDR5Δ23, 0.6 nM 10mer-Thr-FAM tracer; read-out: IC50 ± SD
Where a SMILES comes first, the peptide text is derived from it.
Hi, when you answer, please include the unit after the number. Thanks!

Below are worked cases with known answers.
| Molecule | Target entity | IC50 |
| --- | --- | --- |
| CC(=O)N[C@@H](C)C(=O)N[C@@H](CCCNC(=N)N)C(=O)N[C@@H](C)C(=O)N(C)C [Δ2b, Ac-ARA-CONMe2] (Ac-Ala-Arg-Ala-NMe2) | WDR5 (Homo sapiens (Human)) | 30 µM |
| CC(=O)N[C@@H](C)C(=O)N[C@@H](CCCNC(=N)N)C(N)=O [Ac-2mer, Ac-AR-NH2] (Ac-Ala-Arg-NH2) | WDR5 (Homo sapiens (Human)) | 125 µM |

Switching to the query record.
*Q* Fill in the blank: the reported IC50 of CC(=O)N[C@@H](C)C(=O)N[C@@H](CCCNC(=N)N)C(=O)N[C@@H](C)C(N)=O [Ac-3mer, Ac-ARA-NH2] (Ac-Ala-Arg-Ala-NH2) is ____.
*A* 0.54 µM
